These data points were gathered from PubChem BioAssay (NCI).

Tested on: NCI-H226 lung
Experiment: NCI-60 one-dose screen, 48 h (100 = growth as untreated, 0 = no growth, -100 = all killed)
Conditions: 10 µM unless noted
About 83,000 compounds went through this panel and 20% of them were active in at least one assay; those are over-represented in the sample as a whole.
Parameter growth: see the listing below.

| sample-smiles | quantity-unit | growth |
| --- | --- | --- |
| CC(C)(C)OC(=O)Nc1ccc(-c2cccc(Oc3ccc4nnc(Cl)n4n3)c2)cc1 | % | 66.4 |
| C#C[C@]1(O)CC[C@H]2[C@@H]3CC=C4c5sc(Nc6ncccc6C)nc5CC[C@]4(C)[C@H]3CC[C@@]21C | % | 23.4 |
| CC(=O)Nc1cc(N2CCOCC2)c2nc(NC(=O)c3[nH]c(C)c(Cl)c3Cl)sc2c1 | % | 37.3 |
| COc1ccc(/C=N/NC(=O)c2c(N)nn(C)c2Nc2ccccc2)cc1 | % | 51.6 |
| Cc1ccc(-c2nc(SCC(=O)c3ccccc3)nc(Nc3ccc(S(N)(=O)=O)cc3)c2C#N)cc1 | % | 71.4 |
| O=C(/C=C/C=C/c1csc(Br)n1)NO | % | 103 |
| CN1CCN(c2ccc(Nc3nc(NCCCNS(=O)(=O)c4ccccc4)c4sccc4n3)cc2)CC1 | % | 111 |
| C=C(C)[C@@H]1CC[C@]2(C(=O)N3CCN(C)CC3)CC[C@]3(C)[C@H](CC[C@@H]4[C@@]5(C)CC[C@H](OP(=O)(OCC)OCC)C(C)(C)[C@@H]5CC[C@]43C)[C@@H]12 | % | 75.8 |

* * *

Tested on: OVCAR-8 ovarian
Test: NCI-60 one-dose screen, 48 h (100 = growth as untreated, 0 = no growth, -100 = all killed)
Settings: 10 µM unless noted
This is part of a sample that, as a whole, favours compounds with a hit. Of some 83,000 tested, about 20% had one in any assay.
Define the label as 1.0 when growth is strictly less than 80% and as 0.0 in all remaining cases.

| sample-smiles | label-value |
| --- | --- |
| CN(C)CC(=O)Nc1nc(-c2cccc(NS(=O)(=O)c3cccc4c(N(C)C)cccc34)c2)cs1 | 0.0 |
| CCOP(=O)(OCC)OC[C@]12CCC(C)(C)C[C@H]1C1=CC[C@@H]3[C@@]4(C)CC[C@H](OP(=O)(OCC)OCC)C(C)(C)[C@@H]4CC[C@@]3(C)[C@]1(C)CC2 | 1.0 |
| CCN(CC)c1ccc(/C=N/NC(=O)c2ccc(S(N)(=O)=O)cc2)cc1 | 1.0 |
| C#Cc1cc(C(=O)Nc2ccc(CNCCN3CCOCC3)c(C(F)(F)F)c2)ccc1C | 0.0 |
| CCc1cc2c(cc1Cl)nc1c(=O)[nH]c(=O)nc-1n2CCOCC(C)C | 1.0 |
| Cc1ccc(S(=O)(=O)NCCCNc2nccc(-c3[nH]c(-c4ccccc4)nc3-c3ccc(F)c(O)c3)n2)cc1 | 0.0 |
| CN1CCN(c2ccc(C(=O)/C=C/c3cc(F)cc(C(F)(F)F)c3)cc2)CC1 | 1.0 |
| O=C1[C@H]2Cc3c([nH]c4ccccc34)[C@H](c3ccc(Cl)cc3)N2C(=O)CN1C1CCN(CC2CCCCC2)CC1 | 1.0 |

* * *

System: PC-3 prostate
Assay: NCI-60 one-dose screen, 48 h (100 = growth as untreated, 0 = no growth, -100 = all killed)
Settings: 10 µM unless noted
The panel holds about 83,000 compounds, 20% with a hit somewhere; the sample as a whole holds those more often. Calls of active or inactive are those of the source. Rule for the calls: active = growth percent below 10; inactive = the rest.

| molecule | growth |
| --- | --- |
| CN1CCN(c2ccc(C(=O)/C=C/c3cc(F)cc(C(F)(F)F)c3)cc2)CC1 | 60.2% (inactive) |
| O=C(COc1ccc(/C=C2\C(=O)Nc3cc(Cl)ccc32)cc1)Nc1ccc(Cl)cc1 | 54.5% (inactive) |
| Cc1[nH]c(C(=O)Nc2ccc(S(=O)(=O)N3CCCCC3)cc2OCCOCCOCCOCCOCCOCCOCCOCCOCCOc2cc(S(=O)(=O)N3CCCCC3)ccc2NC(=O)c2[nH]c(C)c3c2CCCCC3=O)c2c1C(=O)CCCC2 | 28.8% (inactive) |
| COc1ccccc1N1CCN(C2=C(Cl)C(=O)c3ncccc3C2=O)CC1 | 79% (inactive) |
| CCCCSC1=C(Cl)CN(c2ccc(Cl)cc2)C1=O | 98.4% (inactive) |
| CCOP(=O)(OCC)OC[C@]12CC[C@@H](C)[C@H](C)C1C1=CC[C@@H]3[C@@]4(C)CCCNC(C)(C)[C@@H]4CC[C@@]3(C)[C@]1(C)CC2 (some centres undefined) | 10.9% (inactive) |
| C#CCOc1ccccc1/C=N/Nc1nc(-c2ccc(Cl)cc2)cs1 | 86.5% (inactive) |
| O=C(/C=C/c1ccc(Cl)c(Cl)c1)Nc1ncc(Cc2ccc(Cl)c(Cl)c2)s1 | 45.3% (inactive) |
| COc1cc(OC)cc(-c2cc(-c3c[nH]c4ccccc34)nc(-c3c[nH]c4ccccc34)c2C#N)c1 | 93.6% (inactive) |
